Test system: MV4-11 cells
Experiment: MV4-11 Cell Cytotoxicity Assay
Assay type: cell-based, human
Settings: 72 hr, CCK-8
pIC50: −log10 of the molar value.
Value type: pIC50

Compound | Value type | Observed result
COc1cccc(-c2cc(C(=O)Nc3ccc(-c4ccc(OC5CCN(CC[C@@H]6N=C(c7ccc(Cl)cc7)c7c(sc(C)c7C)-n7c(C)nnc76)CC5)cc4OCCN(C)C)cc3)ccc2OC)c1 [Compound 139] | pIC50 | 6.00 to 7.00
COc1cccc(-c2cc(C(=O)Nc3ccc(-c4ccc(OC5CCN(CC[C@@H]6N=C(c7ccc(Cl)cc7)c7c(sc(C)c7C)-n7c(C)nnc76)CC5)cc4OCCN(C)C)cc3)ccc2OC)c1 [Compound 140] | pIC50 | < 6.00
Cc1sc2c(c1C)C(c1ccc(Cl)cc1)=N[C@@H](CC(=O)N1CCC(CN3CCN(Cc4ccc(-n5c(O)nnc5-c5cc(C(C)C)c(O)cc5O)cc4)CC3)CC1)c1nnc(C)n1-2.Cl [Compound 74, hydrochloride] | pIC50 | > 7.00

---

pIC50: −log10 of the molar value.
Reported values: pIC50 for HSP90α (Homo sapiens, UniProt P07900), one per item.
Value type: pIC50

Molecule | Observed result
Cc1sc2c(c1C)C(c1ccc(Cl)cc1)=N[C@@H](CCNCC1CCN(C(=O)C3CCN(Cc4ccc(-n5c(O)nnc5-c5cc(C(C)C)c(O)cc5O)cc4)CC3)CC1)c1nnc(C)n1-2 [Compound 64, trifluoroacetic acid] | 6.00 to 7.00
Cc1sc2c(c1C)C(c1ccc(Cl)cc1)=N[C@@H](CC(=O)NCc1ccc(CN3CCC(Cc4ccc(-n5c(C(=O)NCC(F)(F)F)nnc5-c5cc(C(C)C)c(O)cc5O)cc4)CC3)cc1)c1nnc(C)n1-2 [Compound 96, trifluoroacetic acid] | 6.00 to 7.00

---

Structures can show the parent of a compound that is named as a salt.
This section lists IC50 readings for HSP90α (Homo sapiens, UniProt P07900).

Compound | Study system | IC50
Cc1sc2c(c1C)C(c1ccc(Cl)cc1)=NC(CC(=O)N[C@H](C)c1ccc(CN3CCN(Cc4ccc(-n5c(O)nnc5-c5cc(C(C)C)c(O)cc5O)cc4)CC3)cc1)c1nnc(C)n1-2 (stereo in doubt) [Compound 70, trifluoroacetic acid] | HSP90α (Homo sapiens, UniProt P07900) | 0.1 to 1 µM
Cc1sc2c(c1C)C(c1ccc(Cl)cc1)=N[C@@H](CC(=O)N1CCC(CN3CCN(Cc4ccc(-n5c(O)nnc5-c5ccc(O)cc5O)cc4)CC3)CC1)c1nnc(C)n1-2 [Compound 4, trifluoroacetic acid] | HSP90α (Homo sapiens, UniProt P07900) | > 1 µM
Cc1sc2c(c1C)C(c1ccc(Cl)cc1)=N[C@@H](CC(=O)NCCc1ccc(-n3c(O)nnc3-c3cc(C(C)C)c(O)cc3O)cc1)c1nnc(C)n1-2 [Compound 39] | HSP90α (Homo sapiens, UniProt P07900) | 0.1 to 1 µM
Cc1cc(C(=O)N2Cc3ccc(CN4CCN(C(=O)C[C@@H]5N=C(c6ccc(Cl)cc6)c6c(sc(C)c6C)-n6c(C)nnc65)CC4)cc3C2)c(O)cc1O [Compound 144] | HSP90α (Homo sapiens, UniProt P07900) | 0.1 to 1 µM
Cc1sc2c(c1C)C(c1ccc(Cl)cc1)=N[C@@H](CC(=O)NCC(=O)NCC1CCN(C(=O)C3CCN(Cc4ccc(-n5c(O)nnc5-c5cc(C(C)C)c(O)cc5O)cc4)CC3)CC1)c1nnc(C)n1-2 [Compound 46, trifluoroacetic acid] | HSP90α (Homo sapiens, UniProt P07900) | < 0.1 µM
Cc1sc2c(c1C)C(c1ccc(Cl)cc1)=N[C@@H](CC(=O)NCCOc1ccc(-n3c(S)nnc3-c3cc(C(C)C)c(O)cc3O)cc1)c1nnc(C)n1-2 [Compound 32] | HSP90α (Homo sapiens, UniProt P07900) | 0.1 to 1 µM
Cc1sc2c(c1C)C(c1ccc(Cl)cc1)=N[C@@H](CC(=O)NCC1CN(C(=O)C3CCN(Cc4ccc(-n5c(O)nnc5-c5cc(C(C)C)c(O)cc5O)cc4)CC3)C1)c1nnc(C)n1-2 [Compound 59, trifluoroacetic acid] | HSP90α (Homo sapiens, UniProt P07900) | 0.1 to 1 µM
Cc1sc2c(c1C)C(c1ccc(Cl)cc1)=N[C@@H](CC(=O)N1CCC(CN3CCN(Cc4ccc(-n5c(S)nnc5-c5cc(C(C)C)c(O)cc5O)cc4)CC3)CC1)c1nnc(C)n1-2 [Compound 12, trifluoroacetic acid] | HSP90α (Homo sapiens, UniProt P07900) | < 0.1 µM
CCN(Cc1ccc(OCCCNC(=O)C[C@@H]2N=C(c3ccc(Cl)cc3)c3c(sc(C)c3C)-n3c(C)nnc32)cc1)Cc1ccc(-n2c(C(=O)NCC(F)(F)F)nnc2-c2cc(C(C)C)c(O)cc2O)cc1 [Compound 102, trifluoroacetic acid] | HSP90α (Homo sapiens, UniProt P07900) | > 1 µM
CCc1cc(-c2nnc(C(=O)NCC(F)(F)F)n2-c2ccc(CN3CCN(CC4CCN(C(=O)C[C@@H]5N=C(c6ccc(Cl)cc6)c6c(sc(C)c6C)-n6c(C)nnc65)CC4)CC3)cc2)c(O)cc1O [Compound 14, trifluoroacetic acid] | HSP90α (Homo sapiens, UniProt P07900) | 0.1 to 1 µM
Cc1sc2c(c1C)C(c1ccc(Cl)cc1)=N[C@@H](CC(=O)NCC(=O)NCCOc1ccc(-n3c(O)nnc3-c3cc(C(C)C)c(O)cc3O)cc1)c1nnc(C)n1-2 [Compound 54] | HSP90α (Homo sapiens, UniProt P07900) | < 0.1 µM
Cc1sc2c(c1C)C(c1ccc(Cl)cc1)=N[C@@H](CC(=O)N(C)[C@H](C)c1ccc(CN3CCN(Cc4ccc(-n5c(O)nnc5-c5cc(C(C)C)c(O)cc5O)cc4)CC3)cc1)c1nnc(C)n1-2 [Compound 92, trifluoroacetic acid] | HSP90α (Homo sapiens, UniProt P07900) | > 1 µM
Cc1sc2c(c1C)C(c1ccc(Cl)cc1)=N[C@@H](CC(=O)N1CCC(CCN3CCC(Cc4ccc(-n5c(O)nnc5-c5cc(C(C)C)c(O)cc5O)cc4)CC3)CC1)c1nnc(C)n1-2 [Compound 80, trifluoroacetic acid] | HSP90α (Homo sapiens, UniProt P07900) | 0.1 to 1 µM
CCc1cc(-c2nnc(C(N)=O)n2-c2ccc(CN3CCN(CC4CCN(C(=O)C[C@@H]5N=C(c6ccc(Cl)cc6)c6c(sc(C)c6C)-n6c(C)nnc65)CC4)CC3)cc2)c(O)cc1O [Compound 121, hydrochloride] | HSP90α (Homo sapiens, UniProt P07900) | < 0.1 µM
Cc1sc2c(c1C)C(c1ccc(Cl)cc1)=N[C@@H](CC(=O)NCCc1ccc(CN3CCC(Cc4ccc(-n5c(C(=O)NCC(F)(F)F)nnc5-c5cc(C(C)C)c(O)cc5O)cc4)CC3)cc1)c1nnc(C)n1-2 [Compound 95, trifluoroacetic acid] | HSP90α (Homo sapiens, UniProt P07900) | 0.1 to 1 µM
Cc1sc2c(c1C)C(c1ccc(Cl)cc1)=N[C@@H](CCNCCOc1ccc(-n3c(O)nnc3-c3cc(C(C)C)c(O)cc3O)cc1)c1nnc(C)n1-2 [Compound 62, trifluoroacetic acid] | HSP90α (Homo sapiens, UniProt P07900) | 0.1 to 1 µM
Cc1sc2c(c1C)C(c1ccc(Cl)cc1)=N[C@@H](CC(=O)NCC(=O)NCC1CN(C(=O)C3CCN(Cc4ccc(-n5c(O)nnc5-c5cc(C(C)C)c(O)cc5O)cc4)CC3)C1)c1nnc(C)n1-2 [Compound 60, trifluoroacetic acid] | HSP90α (Homo sapiens, UniProt P07900) | 0.1 to 1 µM
COc1cccc(-c2cc(C(=O)Nc3ccc(-c4ccc(OC5CCN(C(=O)CNC(=O)C[C@@H]6N=C(c7ccc(Cl)cc7)c7c(sc(C)c7C)-n7c(C)nnc76)CC5)cc4OCCN(C)C)cc3)ccc2OC)c1 [Compound 138] | HSP90α (Homo sapiens, UniProt P07900) | > 1 µM
